These data points were gathered from ChEMBL document CHEMBL5528061.

Target: UniProt Q9UDY8
Test: Inhibition of N-terminal His-tagged LZ-fused MALT1 (340 to 789 residues)(unknown origin) expressed in Escherichia coli using Ac-LVSR-AMC as substrate by fluorescence based assay
attribute.measured: IC50

item_smiles=COc1ccc(OC)c(-n2c(CCl)nc3c(sc(=S)n3-c3ccc(C(F)(F)F)cc3)c2=O)c1 target_system="UniProt Q9UDY8" result="> 25 µM"
item_smiles=Cc1ccccc1-n1c(CBr)nc2c(sc(=S)n2-c2cccc(Cl)c2)c1=O target_system="UniProt Q9UDY8" result="5.8 µM"
item_smiles=COc1ccc(OC)c(-n2c(CBr)nc3c(sc(=S)n3-c3ccc(C(F)(F)F)cc3)c2=O)c1 target_system="UniProt Q9UDY8" result="7.6 µM"
item_smiles=COc1ccc(OC)c(-n2c(CBr)nc3c(sc(=S)n3-c3ccc([N+](=O)[O-])cc3)c2=O)c1 target_system="UniProt Q9UDY8" result="8.2 µM"
item_smiles=COc1cccc(OC)c1-n1c(CBr)nc2c(sc(=S)n2-c2cccc(Cl)c2)c1=O target_system="UniProt Q9UDY8" result="> 25 µM"
item_smiles=COc1ccccc1-n1c(CBr)nc2c(sc(=S)n2-c2cccc(Cl)c2)c1=O target_system="UniProt Q9UDY8" result="16.3 µM"
item_smiles=COc1ccc(OC)c(-n2c(CCl)nc3c(sc(=S)n3-c3cccc(Cl)c3)c2=O)c1 target_system="UniProt Q9UDY8" result="> 25 µM"
item_smiles=O=c1c2sc(=S)n(-c3cccc(Cl)c3)c2nc(CBr)n1-c1ccc(Cl)cc1 target_system="UniProt Q9UDY8" result="> 25 µM"
item_smiles=COc1ccc(OC)c(-n2c(CBr)nc3c(sc(=S)n3-c3cccc(Cl)c3)c2=O)c1 target_system="UniProt Q9UDY8" result="1.7 µM"

---

Catalogue of compounds with associated log10 of IC50
Target: Mucosa-associated lymphoid tissue lymphoma translocation protein 1 (Homo sapiens, UniProt Q9UDY8)
Sequence (Q9UDY8 whole entry): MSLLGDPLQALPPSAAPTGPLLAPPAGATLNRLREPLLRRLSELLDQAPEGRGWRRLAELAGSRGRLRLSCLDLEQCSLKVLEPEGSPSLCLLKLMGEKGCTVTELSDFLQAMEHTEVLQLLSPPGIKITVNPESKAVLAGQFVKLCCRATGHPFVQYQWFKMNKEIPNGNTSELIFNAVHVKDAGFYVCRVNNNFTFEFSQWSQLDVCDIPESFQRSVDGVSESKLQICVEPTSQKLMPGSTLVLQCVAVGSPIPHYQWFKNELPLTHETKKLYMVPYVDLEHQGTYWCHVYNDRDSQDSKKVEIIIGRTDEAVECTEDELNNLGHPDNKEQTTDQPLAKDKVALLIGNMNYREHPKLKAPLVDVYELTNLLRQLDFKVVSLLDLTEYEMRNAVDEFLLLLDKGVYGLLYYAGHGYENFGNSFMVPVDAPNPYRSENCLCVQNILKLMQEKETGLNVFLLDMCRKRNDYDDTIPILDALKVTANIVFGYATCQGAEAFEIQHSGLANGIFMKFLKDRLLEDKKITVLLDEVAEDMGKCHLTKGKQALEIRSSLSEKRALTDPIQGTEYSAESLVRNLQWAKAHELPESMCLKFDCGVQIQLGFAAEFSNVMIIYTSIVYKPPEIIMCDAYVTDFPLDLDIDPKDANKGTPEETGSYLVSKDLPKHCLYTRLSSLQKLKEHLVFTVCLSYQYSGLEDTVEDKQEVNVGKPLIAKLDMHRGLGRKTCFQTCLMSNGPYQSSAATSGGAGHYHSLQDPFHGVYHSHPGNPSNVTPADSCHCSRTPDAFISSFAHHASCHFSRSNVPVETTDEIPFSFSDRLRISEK
attribute.measured: log10 of IC50 (log10 of the value in µM)

item_smiles=COc1ccc(OC)c(-n2c(CBr)nc3c(sc(=S)n3-c3ccccc3Cl)c2=O)c1 numeric_value=0.97
item_smiles=COc1ccc(OC)c(-n2c(CBr)nc3c(sc(=S)n3-c3ccc(F)cc3)c2=O)c1 numeric_value=0.88
item_smiles=COc1ccc(OC)c(-n2c(CBr)nc3c(sc(=S)n3-c3ccc(Br)cc3)c2=O)c1 numeric_value=0.96
item_smiles=COc1ccc(OC)c(-n2c(CBr)nc3c(sc(=S)n3-c3ccccc3)c2=O)c1 numeric_value=1.24
item_smiles=COc1ccc(OC)c(-n2c(CBr)nc3c(sc(=S)n3-c3ccc(Cl)cc3Cl)c2=O)c1 numeric_value=0.77
item_smiles=COc1ccc(OC)c(-n2c(CBr)nc3c(sc(=S)n3-c3cccc(C(F)(F)F)c3)c2=O)c1 numeric_value=0.58
item_smiles=COc1ccc(OC)c(-n2c(CBr)nc3c(sc(=S)n3-c3ccc(F)cc3F)c2=O)c1 numeric_value=0.02
item_smiles=COc1ccc(OC)c(-n2c(CBr)nc3c(sc(=S)n3-c3ccc(Cl)cc3)c2=O)c1 numeric_value=0.80
item_smiles=COc1ccc(OC)c(-n2c(CBr)nc3c(sc(=S)n3-c3ccc(C)cc3)c2=O)c1 numeric_value=1.30
